Every entry's value here was drawn from paper PMC9144871.

# target entity: SARS-CoV-2 spike RBD-His (SARS-CoV-2, UniProt P0DTC2)
# procedure summary: SPR
# measurement parameters: both partners purified
reported metric: Kd (nM)
Answers are plain numbers, in nM.

S-plug3 (designed binder, also called S-plug2 with C-terminal arm PPGC; cysteine-locked S-plug) SAMEEQAKFFLDKLQHELEDTQYQLLYKALALNKSQQEELQKQYKKTYDEYVTLAKKWAKAASSIPLNSITDEKLYKAMEKTASSPPGC : 39.5

Now for another entry.
Complete the entry with Kd for S-plug2 (designed binder, also called thermo-stabilised S-plug; mutated form of S-plug) SAMEEQAKFFLDKLQHELEDTQYQLLYKALALNKSQQEELQKQYKKTYDEYVTLAKKWAKAASSIPLNSITDEKLYKAMEKTASS
61.7
